Molecular target: human hERG channels (Kv11.1) (Homo sapiens, UniProt Q12809)
Sequence (Q12809 whole entry): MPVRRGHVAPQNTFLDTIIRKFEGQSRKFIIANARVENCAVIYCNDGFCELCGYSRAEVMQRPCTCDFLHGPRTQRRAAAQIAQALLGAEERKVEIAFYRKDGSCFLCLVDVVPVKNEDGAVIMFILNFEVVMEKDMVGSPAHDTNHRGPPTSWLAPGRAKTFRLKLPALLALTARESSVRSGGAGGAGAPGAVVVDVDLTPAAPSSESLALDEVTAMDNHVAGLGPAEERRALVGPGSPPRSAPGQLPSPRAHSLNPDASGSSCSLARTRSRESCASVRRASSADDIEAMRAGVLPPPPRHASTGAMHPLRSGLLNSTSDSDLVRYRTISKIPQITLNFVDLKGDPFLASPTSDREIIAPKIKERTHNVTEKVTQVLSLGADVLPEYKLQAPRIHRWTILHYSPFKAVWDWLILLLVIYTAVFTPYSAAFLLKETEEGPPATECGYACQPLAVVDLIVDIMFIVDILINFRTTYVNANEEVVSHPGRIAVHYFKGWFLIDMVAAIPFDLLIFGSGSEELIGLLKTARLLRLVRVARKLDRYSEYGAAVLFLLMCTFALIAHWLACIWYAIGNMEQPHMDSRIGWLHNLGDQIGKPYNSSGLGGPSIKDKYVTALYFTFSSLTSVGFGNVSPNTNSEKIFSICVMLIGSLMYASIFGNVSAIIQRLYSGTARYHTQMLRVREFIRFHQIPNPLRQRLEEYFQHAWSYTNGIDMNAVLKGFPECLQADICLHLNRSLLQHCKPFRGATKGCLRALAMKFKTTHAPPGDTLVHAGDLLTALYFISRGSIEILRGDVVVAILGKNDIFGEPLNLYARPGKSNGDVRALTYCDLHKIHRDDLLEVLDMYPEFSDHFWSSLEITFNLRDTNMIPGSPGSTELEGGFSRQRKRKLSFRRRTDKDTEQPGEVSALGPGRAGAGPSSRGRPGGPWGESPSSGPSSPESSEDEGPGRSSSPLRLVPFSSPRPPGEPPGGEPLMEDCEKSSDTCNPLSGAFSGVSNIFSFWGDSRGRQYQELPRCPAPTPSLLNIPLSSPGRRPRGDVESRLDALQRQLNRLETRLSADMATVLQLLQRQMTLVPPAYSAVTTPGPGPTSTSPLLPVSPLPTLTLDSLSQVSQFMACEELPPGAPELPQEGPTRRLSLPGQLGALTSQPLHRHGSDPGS
Test: hERG assay, automated planar patch-clamp in CHO cells stably expressing human hERG channels
Settings: peak tail-current, QPatch HTX whole-cell voltage-clamp, room temperature, 0.12-30 μM
Quick reference: IC50 of the listed items.

Past entries and their recorded results:
[
  {
    "SAMPLE SMILES": "CN1C(=O)c2cccc(OC(F)F)c2[C@H]2C[C@@H]1c1nc3ccc(-c4cnc(C5(N)CCC5)nc4)cc3n12",
    "OBSERVED MEASUREMENT": "~8 µM"
  },
  {
    "SAMPLE SMILES": "[2H]C([2H])(O)[C@]1(C)C[C@@](N)(c2ncc(-c3ccc4nc5n(c4c3)[C@@H]3C[C@H]5NC(=O)c4cccc(OC(F)F)c43)cc2F)C1",
    "OBSERVED MEASUREMENT": "> 30 µM"
  },
  {
    "SAMPLE SMILES": "C[C@]1(CO)C[C@](N)(c2ncc(-c3ccc4nc5n(c4c3)[C@@H]3C[C@H]5NC(=O)c4cccc(OC(F)F)c43)cn2)C1",
    "OBSERVED MEASUREMENT": "> 30 µM"
  },
  {
    "SAMPLE SMILES": "C[C@]1(O)C[C@](N)(c2ncc(-c3ccc4nc5n(c4c3)[C@@H]3C[C@H]5NC(=O)c4cccc(OC(F)F)c43)cc2F)C1",
    "OBSERVED MEASUREMENT": "> 30 µM"
  },
  {
    "SAMPLE SMILES": "[2H]C([2H])(O)[C@]1(C)C[C@@](N)(c2ncc(-c3ccc4nc5n(c4c3)[C@@H]3C[C@H]5NC(=O)c4cccc(OC(F)F)c43)cn2)C1",
    "OBSERVED MEASUREMENT": "> 30 µM"
  }
]

Now take the following compound into account.
Which value of IC50 has been reported for `C[C@]1(C#N)C[C@](N)(c2ncc(-c3ccc4nc5n(c4c3)[C@@H]3C[C@H]5NC(=O)c4cccc(OC(F)F)c43)cc2F)C1` in the records? > 30 µM

Where do the numbers come from? From patent US10980814B2.
